system.name: human Nav1.8/β1 (Homo sapiens, UniProt Q9Y5Y9)
Construct: host or cells: HEK293
Sequence (Q9Y5Y9 whole entry): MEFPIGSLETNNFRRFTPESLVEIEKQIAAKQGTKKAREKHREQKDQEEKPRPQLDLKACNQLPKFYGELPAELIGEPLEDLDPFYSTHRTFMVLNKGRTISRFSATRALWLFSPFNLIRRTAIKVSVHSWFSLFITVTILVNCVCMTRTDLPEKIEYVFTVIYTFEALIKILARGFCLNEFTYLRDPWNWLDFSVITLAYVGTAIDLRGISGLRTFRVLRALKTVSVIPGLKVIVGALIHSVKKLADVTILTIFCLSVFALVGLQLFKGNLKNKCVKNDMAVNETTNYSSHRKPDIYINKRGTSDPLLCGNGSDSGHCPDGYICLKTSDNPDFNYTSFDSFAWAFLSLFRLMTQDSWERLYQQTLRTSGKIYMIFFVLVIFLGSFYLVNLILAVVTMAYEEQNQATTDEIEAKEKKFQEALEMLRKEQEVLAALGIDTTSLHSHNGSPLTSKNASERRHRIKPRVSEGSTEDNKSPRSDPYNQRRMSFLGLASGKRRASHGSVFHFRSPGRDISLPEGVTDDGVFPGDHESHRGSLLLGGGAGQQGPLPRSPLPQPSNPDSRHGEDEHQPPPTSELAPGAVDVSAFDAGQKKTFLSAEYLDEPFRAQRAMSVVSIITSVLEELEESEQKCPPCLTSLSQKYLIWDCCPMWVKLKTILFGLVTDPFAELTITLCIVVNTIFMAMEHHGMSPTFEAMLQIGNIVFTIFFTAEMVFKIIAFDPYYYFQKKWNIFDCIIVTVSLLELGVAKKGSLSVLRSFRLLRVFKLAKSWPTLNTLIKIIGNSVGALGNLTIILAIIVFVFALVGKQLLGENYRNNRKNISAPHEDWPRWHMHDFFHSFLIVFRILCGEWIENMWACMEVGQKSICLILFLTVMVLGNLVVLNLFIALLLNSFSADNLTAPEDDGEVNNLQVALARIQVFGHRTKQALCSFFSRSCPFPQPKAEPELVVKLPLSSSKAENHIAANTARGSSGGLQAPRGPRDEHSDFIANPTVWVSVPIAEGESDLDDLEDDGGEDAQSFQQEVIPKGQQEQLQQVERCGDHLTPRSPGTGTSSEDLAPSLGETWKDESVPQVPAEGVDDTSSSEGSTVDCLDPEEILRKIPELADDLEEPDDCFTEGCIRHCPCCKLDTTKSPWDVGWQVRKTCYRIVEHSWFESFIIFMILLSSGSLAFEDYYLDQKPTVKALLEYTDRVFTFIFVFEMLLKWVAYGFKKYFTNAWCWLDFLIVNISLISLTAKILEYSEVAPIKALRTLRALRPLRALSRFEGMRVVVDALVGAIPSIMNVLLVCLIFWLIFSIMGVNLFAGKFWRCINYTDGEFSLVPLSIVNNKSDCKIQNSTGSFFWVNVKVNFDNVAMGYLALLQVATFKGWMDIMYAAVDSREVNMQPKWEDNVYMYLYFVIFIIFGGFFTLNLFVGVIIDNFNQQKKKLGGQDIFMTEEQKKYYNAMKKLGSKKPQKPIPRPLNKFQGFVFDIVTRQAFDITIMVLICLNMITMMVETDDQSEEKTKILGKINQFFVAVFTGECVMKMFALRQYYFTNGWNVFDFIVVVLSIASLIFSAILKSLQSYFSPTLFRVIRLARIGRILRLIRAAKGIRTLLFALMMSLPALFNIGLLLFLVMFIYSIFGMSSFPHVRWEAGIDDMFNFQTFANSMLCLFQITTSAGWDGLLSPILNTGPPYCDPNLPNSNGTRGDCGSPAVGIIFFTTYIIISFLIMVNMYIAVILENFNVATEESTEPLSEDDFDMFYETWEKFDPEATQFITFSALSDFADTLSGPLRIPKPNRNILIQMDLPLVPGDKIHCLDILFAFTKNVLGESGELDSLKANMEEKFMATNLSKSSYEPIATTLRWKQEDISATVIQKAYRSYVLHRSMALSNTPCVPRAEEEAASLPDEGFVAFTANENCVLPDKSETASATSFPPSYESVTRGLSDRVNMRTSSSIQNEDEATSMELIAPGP
Sequence (Q07699 19-218 partner): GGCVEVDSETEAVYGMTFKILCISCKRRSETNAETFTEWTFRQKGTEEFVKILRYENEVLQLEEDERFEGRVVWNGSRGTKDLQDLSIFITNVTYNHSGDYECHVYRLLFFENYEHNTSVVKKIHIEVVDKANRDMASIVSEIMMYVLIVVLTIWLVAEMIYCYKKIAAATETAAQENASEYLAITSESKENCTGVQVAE
protocol: Compound Profiling Human NaV1.8/β1 Cell Line—Sophion QPatch II Assay (automated patch clamp, stably transfected HEK293 cells)
Format: cell-based
pIC50: −log10 of the molar value.

compound: COc1cc(C#N)ccc1Oc1cc(C(F)(F)F)c(Cl)cc1C(=O)Nc1ccc(F)c([S@@](C)(=N)=O)c1 [Example 26A]
pIC50: < 6.70
--
compound: Cc1cc(F)ccc1Oc1ncc(C(F)(F)F)c(C)c1C(=O)Nc1cccc(S(=N)(=O)CCCN(C)C)c1 (stereo not shown) [Example 55C]
pIC50: 7.30 to 8.30
--
compound: Cc1nc(F)ccc1Oc1ncc(C(F)(F)F)c(C)c1C(=O)Nc1cccc([S@]2(=O)=NCCC2)c1 [Example 79C]
pIC50: 7.30 to 8.30
--
compound: CNCCCS(=O)(=O)c1cccc(NC(=O)c2c(Oc3ccc(F)nc3C)ncc(C(F)(F)F)c2C)c1 [Example 71C]
pIC50: 7.30 to 8.30
--
compound: CNCCCS(=N)(=O)c1cccc(NC(=O)c2c(Oc3ccc(F)cc3C)ncc(C(F)(F)F)c2C)c1 (stereo not shown) [Example 56C]
pIC50: 7.30 to 8.30
--
compound: CNCCS(=N)(=O)c1cccc(NC(=O)c2c(Oc3ccc(F)nc3C)ncc(C(F)(F)F)c2C)c1 (stereo not shown) [Example 78C]
pIC50: 7.30 to 8.30
--
compound: Cc1nc(F)ccc1Oc1ncc(C(F)(F)F)c(C)c1C(=O)N[C@H]1C[C@@H](C(N)=O)C1 [Example 85C]
pIC50: < 6.70
